test system: OVCAR-8 ovarian; assay: NCI tumour cell line growth inhibition, 384-well format; in the data active = GI50 below about 0.43 µM; inactive = the rest
Outcome codes: 1 = active, 0 = inactive

INSERT INTO measurements (compound, category_label) VALUES
  ('CNC(=O)c1ccc2cc(C3(O)CCn4cncc43)ccc2c1 (centres undefined)', 0),
  ('CN1CCN(c2ccc3nc(-c4c(N)c5c(F)cccc5[nH]c4=O)[nH]c3c2)CC1', 0),
  ('CN(N=O)C(=O)N[C@@H](C=O)[C@@H](O)[C@H](O)[C@H](O)CO', 0),
  ('CC(C)(C)c1[nH]cnc1/C=c1\[nH]c(=O)/c(=C/c2ccccc2)[nH]c1=O', 1);
